molecular target: Hap1 (UniProt P0CE41); test: PBM E-score (8-mer binding enrichment) (E-score (-0.5 to 0.5)); higher = stronger / more preferred TF binding; conditions: protein concentration: 200 nM; construct: GST-DNA-binding domain
Sequence (P0CE41 whole entry, the tested form may be a part): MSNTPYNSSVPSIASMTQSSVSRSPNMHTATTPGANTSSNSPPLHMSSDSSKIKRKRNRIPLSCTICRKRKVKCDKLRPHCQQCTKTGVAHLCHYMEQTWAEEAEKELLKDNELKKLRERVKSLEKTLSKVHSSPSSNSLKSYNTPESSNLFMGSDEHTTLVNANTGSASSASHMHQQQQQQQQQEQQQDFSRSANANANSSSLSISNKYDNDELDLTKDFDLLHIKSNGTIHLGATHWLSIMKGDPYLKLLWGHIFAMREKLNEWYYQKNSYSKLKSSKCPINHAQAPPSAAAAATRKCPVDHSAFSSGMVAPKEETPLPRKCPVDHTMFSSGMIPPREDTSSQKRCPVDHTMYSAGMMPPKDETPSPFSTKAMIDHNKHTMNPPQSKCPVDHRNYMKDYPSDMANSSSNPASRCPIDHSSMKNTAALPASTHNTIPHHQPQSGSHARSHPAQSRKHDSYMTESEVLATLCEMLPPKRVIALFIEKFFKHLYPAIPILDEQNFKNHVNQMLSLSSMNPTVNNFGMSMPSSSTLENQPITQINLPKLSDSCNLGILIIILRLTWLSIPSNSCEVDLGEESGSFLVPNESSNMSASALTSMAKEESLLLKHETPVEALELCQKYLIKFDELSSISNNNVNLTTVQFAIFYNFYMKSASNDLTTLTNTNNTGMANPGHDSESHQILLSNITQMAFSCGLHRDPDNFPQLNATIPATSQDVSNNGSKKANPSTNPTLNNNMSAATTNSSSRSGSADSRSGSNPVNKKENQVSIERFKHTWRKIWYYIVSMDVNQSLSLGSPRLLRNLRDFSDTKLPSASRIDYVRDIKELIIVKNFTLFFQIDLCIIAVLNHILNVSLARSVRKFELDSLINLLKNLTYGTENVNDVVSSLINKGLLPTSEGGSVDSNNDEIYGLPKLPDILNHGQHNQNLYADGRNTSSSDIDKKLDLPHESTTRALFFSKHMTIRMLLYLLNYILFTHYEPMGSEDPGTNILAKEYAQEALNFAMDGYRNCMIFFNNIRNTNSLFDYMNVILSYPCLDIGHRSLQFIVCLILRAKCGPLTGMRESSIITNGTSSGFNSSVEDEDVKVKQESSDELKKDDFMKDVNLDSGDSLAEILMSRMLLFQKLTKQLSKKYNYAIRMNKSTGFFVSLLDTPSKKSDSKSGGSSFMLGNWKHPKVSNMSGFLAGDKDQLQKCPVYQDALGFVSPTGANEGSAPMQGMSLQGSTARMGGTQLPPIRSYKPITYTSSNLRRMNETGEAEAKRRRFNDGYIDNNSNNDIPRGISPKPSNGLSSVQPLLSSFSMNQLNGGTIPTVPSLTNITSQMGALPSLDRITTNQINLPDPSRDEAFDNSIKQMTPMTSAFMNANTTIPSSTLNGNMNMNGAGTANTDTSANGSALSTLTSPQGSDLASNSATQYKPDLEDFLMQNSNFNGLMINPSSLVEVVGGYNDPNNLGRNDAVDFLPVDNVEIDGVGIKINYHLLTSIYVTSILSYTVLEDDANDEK
The full ranking holds about 33,000 sequences; the median of “E-score (-0.5 to 0.5)” is about -0.053, and the highest 2% start at about 0.37. Many of the other results were omitted from the sample, so the highest values are more common in it than they were.
Response key: True means PBM E-score >= 0.3; False means PBM E-score < 0.3.

CATCCGGG; False
CTCACAGA; False
ATCGGTCA; True
CACGGACA; True

* * *

Collected PBM E-score values appear next to each entry.
biological target: Hap1 (UniProt P0CE41); experiment: PBM E-score (8-mer binding enrichment) (E-score (-0.5 to 0.5)); higher = stronger / more preferred TF binding; conditions: protein concentration: 200 nM; construct: GST-DNA-binding domain
Over roughly 33,000 sequences, “E-score (-0.5 to 0.5)” has its median near -0.053; the highest 2% begin near 0.37. Shown is part of a subset that was picked to be rich in the highest values.
measured_quantity: PBM E-score

ACCTGCCG; -0.0501
CGGCCAAG; 0.195
AAAACGGG; 0.174
CGGCCGAA; 0.449
AGGGTTAA; -0.259
CGGTTGAG; 0.18
TGGCCGAA; 0.261
CAGCTATG; -0.287
GCGACAGC; 0.0479
AGAGAACG; -0.258

* * *

molecular target: Hap1 (UniProt P0CE41); assay: PBM E-score (8-mer binding enrichment) (E-score (-0.5 to 0.5)); higher = stronger / more preferred TF binding; conditions: protein concentration: 200 nM; construct: GST-DNA-binding domain
Over roughly 33,000 sequences, “E-score (-0.5 to 0.5)” has its median near -0.053; the highest 2% begin near 0.37. Shown is part of a subset that was picked to be rich in the highest values.
measured_quantity: PBM E-score

CCAATGCA; -0.186
CTTCCGAA; 0.324
GGTTCCAA; 0.14
AATTGGAC; 0.0155
CAGAAACC; -0.0171
AACTAACA; -0.0716
ACGCAAAG; -0.0974
CCTCGGCC; 0.346
CCTCGGAA; 0.314
GGACCCAA; 0.124
GTAGGGAC; -0.0187
GCTCGGCC; 0.375

* * *

Collected PBM E-score values appear next to each entry.
target: Hap1 (UniProt P0CE41); experiment: PBM E-score (8-mer binding enrichment) (E-score (-0.5 to 0.5)); higher = stronger / more preferred TF binding; details: protein concentration: 200 nM; construct: GST-DNA-binding domain
Whole data set: some 33,000 sequences, median “E-score (-0.5 to 0.5)” near -0.053, cut for the highest 2% near 0.37. Many of the other results were omitted from the sample, so the highest values are more common in it than they were.
measured_quantity: PBM E-score

GTCGGAGA; 0.355
GGTCCAAA; 0.0135
CATCCGAG; 0.265
GGTCTGCA; 0.0455
CGTCCGAG; 0.401
AGTCCGAA; 0.416

* * *

target: Hap1 (UniProt P0CE41); experiment: PBM E-score (8-mer binding enrichment) (E-score (-0.5 to 0.5)); higher = stronger / more preferred TF binding; details: protein concentration: 200 nM; construct: GST-DNA-binding domain
In all, about 33,000 sequences were measured (“E-score (-0.5 to 0.5)”: median about -0.053, highest 2% from about 0.37 on). Many of the other results were omitted from the sample, so the highest values are more common in it than they were.
Collected PBM E-score values appear next to each entry.
measured_quantity: PBM E-score

CCGGGACA; 0.299
CACCGAGC; 0.297
CGGGCTTC; 0.307
TCTCCGCA; 0.299
